Listing of recorded melting point by entry.
quantity kind: melting point

In [3]: df
Out[3]:
                            chemical_smiles  value_reported
0  CC(C)Oc1ccc(OCc2ccccc2)cc1-c1nc2cc(CO)cnc2[nH]1   167 to 168 °C
1  CCOC(=O)c1cnc2[nH]c(-c3cc(OCc4ccccc4)ccc3OC(C)C)nc2c1   138 to 140 °C
2  CC(C)Oc1ccc(OCc2ccccc2)cc1-c1nc2cc(CNCCOc3ccccc3)cnc2[nH]1     67 to 68 °C
3  CC(C)Oc1cc(OCc2ccccc2)cc(-c2nc3cccnc3[nH]2)c1   136 to 137 °C
